Give GI50 for every item shown.
Tested on: MCF7
PROTOCOL: NCI tumour cell line growth inhibition, 48 h
The source made the active and inactive calls. Rule as the data show it: active = GI50 up to about 1.1 µM and inactive = higher.

C=CCn1c(=O)c(-c2ccccc2)c(O)c2ccccc21; > 100 µM (inactive)

For the 3 compounds below, give their GI50 values.
1. C[C@H](C/C=C/C(C)(C)O)[C@H]1CC[C@@]2(C)[C@@H]3CC[C@H]4C(C)(C)[C@@H](O)CC[C@@]45C[C@@]35CC[C@]12C
2. Cc1ccc(C2=Nc3c(N)nc(N)nc3NC(c3ccccc3)C2)cc1 (centres undefined)
3. Cn1c(-c2cccs2)cc(-c2ccsc2)c1-c1ccsc1

Resp:
1. 35.2 µM (inactive)
2. 7.69 µM (inactive)
3. 6.59 µM (inactive)
